MEASURED TARGET: Muscarinic acetylcholine receptor (Rattus norvegicus) (UniProt P08482+P08483+P08485+P08911+P10980)
PROTOCOL SUMMARY: Ratio of IC50 values for inhibition of QNB and OXO-M was measured for efficacy of the compound
QUANTITY KIND: Ratio
# answer = number (no unit)

Could you share which Ratio value was measured for Cc1nncc(C23CCN(CC2)C3)n1 ? 59

Quick one: Cc1noc([C@H]2CN3CC[C@H]2C3)n1 360

Quick one: COc1nncc([C@H]2CN3CC[C@H]2C3)n1 17

Quick one: Cc1nncc(C23CCCN(CC2)C3)n1 (stereo not given) 55

Quick one: Nc1nncc([C@H]2CN3CC[C@H]2C3)n1 460

Quick one: c1nncc([C@H]2CN3CC[C@H]2C3)n1 370

Quick one: CSc1nncc([C@H]2CN3CC[C@H]2C3)n1 4.5

Quick one: Cc1nncc([C@H]2CN3CC[C@H]2C3)n1 105

Quick one: CCc1nncc([C@H]2CN3CC[C@H]2C3)n1 9

Quick one: Cc1nncc(C2CN3CCC2CC3)n1 (stereo not given) 56
